The entries below are paired with their reported activity change, negative = inhibition.
protocol_text: AP1 Signaling Pathway (AID 357);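 note: ME-180 reporter cells stimulated with EGF at its EC50 level; % is set by controls: 0 for no effect and ±100 for the full control effect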
measurement_context: ME-180 (cervical carcinoma) AP-1-bla reporter, EGF-induced, beta-lactamase ratio, 5 h; at 7.69 µM (top of the series) unless noted
Description: NCGC Assay Overview: Activator protein-1 (AP-1), a transcription factor, plays an important role in tumor genesis by regulating genes involved in cell proliferation, differentiation, apoptosis, and angiogenesis. AP-1 activity is induced by a complex network of signaling pathways that involves extracellular signals, such as growth factors. […] Library compounds were measured for their ability to modulate positively or negatively the action of EC50 EGF on reporter gene activity. […]
Results filed as inconclusive are left out. Active and inactive are the calls of the source. Calls come from the whole dose curve; as a rule, active = well fitted curve in either direction with a large enough effect (not every such curve was filed as active); inconclusive = small, poorly fitted or top-dose-only effect, or another doubt; inactive = flat fitted curve, though single readings scatter.

sample_smiles | activity change, negative = inhibition
O=C(c1ccncc1)N1CCC2(CCCN(Cc3ccncc3)C2)CC1 | -5.21% (inactive)
CS(=O)(=O)N1CCC2(CCN(Cc3nccs3)CC2)CC1 | 3.17% (inactive)
CC(C)CN1CCC2(CC1)CCN(C(=O)c1cccn1C)CC2 | -13.5% (inactive)
COC(=O)N1CCC2(CC1)CCN(C(c1ccccc1)c1ccccc1)CC2 | -7.14% (inactive)
COCCn1c(=O)c(-c2cc(F)cc(F)c2)nc2cnc(OCc3ccccc3)nc21 | 8.07% (inactive)
O=c1c(-c2ccc(F)c(F)c2)nc2cncnc2n1Cc1ccccc1Cl | 4.57% (inactive)
Cn1cccc1C(=O)N1CCC2(CC1)CN(c1ccncc1)C2 | -6.05% (inactive)
O=c1c(-c2cc(F)cc(F)c2)nc2cnc(N3CCOCC3)nc2n1CCc1ccccc1 | 29.6% (inactive)
COc1ccc(Oc2ncc3nc(-c4ccc(F)cc4)c(=O)n(C4CC4)c3n2)cc1 | 0.828% (inactive)
CCNc1ncc2nc(-c3ccc(F)cc3)c(=O)n(CCC#N)c2n1 | -13.4% (inactive)
O=C(c1ccncc1)N1CCC2(CC1)CCN(c1ncccn1)CC2 | -2.2% (inactive)
O=C(c1cc(C(F)(F)F)cc(C(F)(F)F)c1)N1CCC[C@@]2(CCN(c3ncccn3)C2)C1 | 8.42% (inactive)
COC(=O)N1CCC2(CC1)CN(C(=O)Nc1cccc(F)c1)C2 | -2.84% (inactive)
CS(=O)(=O)Nc1cccc(-c2nccc(-n3ccnc3)n2)c1 | -9.45% (inactive)
CS(=O)(=O)N1CCC[C@@]2(CCN(c3ccncc3)C2)C1 | -3.38% (inactive)
Cc1noc(C)c1-c1nccc(NCc2cccs2)n1 | 3.65% (inactive)
COc1ccc(-c2nc3cnc(OC)nc3n(C[C@H]3CCCO3)c2=O)cc1 | -17.7% (inactive)
CCCN1C[C@H](CSC)C[C@H]2c3cccc4[nH]cc(c34)C[C@@H]21 | -5.45% [at 17.2 µM] (inactive)
c1cncc(-c2cc(-n3ccnc3)ncn2)c1 | -4.01% (inactive)
COc1ccc(CNc2nc(-c3ccc(N(C)C)cc3)nc3ccccc23)c(OC)c1 | 5.6% (inactive)
Cc1ccccc1-c1ccc2ncnc(N(C)C)c2c1 | 13.7% (inactive)
CCNc1ncc2nc(C)c(=O)n(C[C@H]3CCCO3)c2n1 | 3.27% (inactive)
COc1ccc(C(=O)N2CCC3(CCCN(C(=O)NC(C)C)C3)CC2)cc1 | -3.27% (inactive)
CN(Cc1ccco1)c1nc(-c2ccccc2Cl)nc2ccccc12 | 16.9% (inactive)
O=C(c1ccco1)N1CCC2(CCCN(Cc3ccncc3)C2)CC1 | -1.32% (inactive)
COCCn1c(=O)c(-c2cn(C)c3ccccc23)nc2cnc(Oc3ccc(OC)cc3)nc21 | 14.1% (inactive)
CS(=O)(=O)N1CCC2(CCCN(Cc3cc(C(F)(F)F)cc(C(F)(F)F)c3)C2)CC1 | 20% (inactive)
Cc1ccccc1-c1nc(N(C)C)c2ccccc2n1 | 5.33% (inactive)
N#Cc1ccccc1-c1cncnc1NCc1cccnc1 | -25.2% (inactive)
O=C(c1cc(C(F)(F)F)cc(C(F)(F)F)c1)N1CCC2(CC1)CN(Cc1ccncc1)C2 | -12.2% (inactive)

====

subject_of_test: Dual specificity protein kinase CLK4 (Homo sapiens)
protocol_text: qHTS Assay for Inhibitors of CDC-like Kinase 4 (ADP-FP Assay) (AID 1795); note: nearly all actives have a fitted effect of over 60% in size
measurement_context: Transcreener ADP fluorescence polarization; series mostly up to 50 µM
Inconclusive results are not listed. Active and inactive are the calls of the source. Calls come from the whole dose curve; as a rule, active = well fitted inhibition curve with a large enough effect; inconclusive = small, poorly fitted or top-dose-only effect; inactive = flat fitted curve, though single readings scatter.
assay_metric: outcome

sample_smiles | subject_of_test | assay_metric | observed_measurement
COc1ccc(CNc2ccnc(-c3ccc(C(=O)N(C)C)cc3)n2)c(OC)c1 | Dual specificity protein kinase CLK4 (Homo sapiens) | outcome | inactive
N#Cc1ccccc1-c1ccc2ncnc(NCCN3CCOCC3)c2c1 | Dual specificity protein kinase CLK4 (Homo sapiens) | outcome | inactive
COc1ccc(CNc2cc(-c3ccccc3C)ncn2)c(OC)c1 | Dual specificity protein kinase CLK4 (Homo sapiens) | outcome | inactive
COc1ccccc1CNc1cc(-c2ccccc2C)ncn1 | Dual specificity protein kinase CLK4 (Homo sapiens) | outcome | inactive
O=c1c(-c2ccc(F)cc2)nc2cnc(N3CCNCC3)nc2n1Cc1cccs1 | Dual specificity protein kinase CLK4 (Homo sapiens) | outcome | inactive
Clc1ccccc1-c1nccc(NCc2ccccc2)n1 | Dual specificity protein kinase CLK4 (Homo sapiens) | outcome | inactive

====

subject_of_test: Dual specificity protein kinase CLK4 (Homo sapiens) (UniProt Q9HAZ1)
Sequence (Q9HAZ1 whole entry, looked up): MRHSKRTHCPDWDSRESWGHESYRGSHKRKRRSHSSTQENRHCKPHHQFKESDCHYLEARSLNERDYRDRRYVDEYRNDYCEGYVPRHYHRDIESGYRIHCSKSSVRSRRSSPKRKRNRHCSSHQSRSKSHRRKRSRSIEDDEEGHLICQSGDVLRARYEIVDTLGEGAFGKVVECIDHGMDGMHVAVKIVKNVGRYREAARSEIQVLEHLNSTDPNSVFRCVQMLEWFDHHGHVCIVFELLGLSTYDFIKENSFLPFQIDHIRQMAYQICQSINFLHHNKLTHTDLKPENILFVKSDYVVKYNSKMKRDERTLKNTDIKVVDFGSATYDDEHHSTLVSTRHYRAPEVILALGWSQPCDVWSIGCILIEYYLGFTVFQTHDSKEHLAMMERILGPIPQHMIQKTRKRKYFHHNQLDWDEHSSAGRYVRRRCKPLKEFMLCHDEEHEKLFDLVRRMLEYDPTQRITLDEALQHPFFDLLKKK
protocol_text: qHTS Assay for Inhibitors of CDC-like Kinase 4 (ADP-FP Assay) (AID 1795); note: nearly all actives have a fitted effect of over 60% in size
measurement_context: Transcreener ADP fluorescence polarization; series mostly up to 50 µM
Inconclusive results are not listed. The source made the active and inactive calls. Calls come from the whole dose curve; as a rule, active = well fitted inhibition curve with a large enough effect; inconclusive = small, poorly fitted or top-dose-only effect; inactive = flat fitted curve, though single readings scatter.
Outcomes: active, inactive

sample_smiles | category
COc1cccc(-c2ccc3ncnc(N(C)C)c3c2)c1 | active
CN(Cc1ccco1)c1ncncc1-c1ccccc1C(F)(F)F | inactive
COc1ccccc1-c1cncnc1N(C)Cc1ccco1 | inactive
COc1ccc(-c2nc3cnc(OCc4ccccc4)nc3n(CCC#N)c2=O)cc1 | inactive
N#Cc1cccc(-c2nccc(NCc3cccs3)n2)c1 | active
CN(Cc1ccco1)c1cc(-c2cccnc2)ncn1 | inactive
CCNc1ncc2nc(-c3ccc(Cl)cc3)c(=O)n(C)c2n1 | inactive
c1nc(N2CCOCC2)c2cc(-c3ccoc3)ccc2n1 | active
CS(=O)(=O)Nc1cccc(-c2nc(NC3CC3)c3ccccc3n2)c1 | active
CS(=O)(=O)Nc1cccc(-c2ccc3ncnc(NCc4cccs4)c3c2)c1 | active
CCNc1ncc2nc(-c3ccc(F)cc3)c(=O)n(CCc3ccccc3)c2n1 | inactive
O=c1c(-c2cccc(F)c2)nc2cncnc2n1Cc1ccccc1Cl | inactive
COc1ccccc1-c1ccc2ncnc(N(C)Cc3ccco3)c2c1 | active
COCCn1c(=O)c(-c2cccs2)nc2cncnc21 | inactive
CN(C)c1ccc(-c2cncnc2N(C)Cc2ccco2)cc1 | inactive
Cc1ccccc1-c1ccc2ncnc(N3CCN(C)CC3)c2c1 | inactive
COc1ccc(Oc2ncc3ncc(=O)n(-c4ccc(OC)cc4)c3n2)cc1 | active
COc1ccc(CNc2cc(-c3ccccc3OC)ncn2)c(OC)c1 | inactive
c1cncc(CNc2ncncc2-c2ccoc2)c1 | inactive
O=c1c(-c2ccc(F)cc2)nc2cncnc2n1Cc1ccc(F)cc1 | inactive
COc1ccc2[nH]cc(CCNc3cc(-c4ccccc4Cl)ncn3)c2c1 | active
CN(Cc1ccco1)c1ncncc1-c1cccc(NS(C)(=O)=O)c1 | inactive
Cc1cnc(CNc2nc(-c3c(C)noc3C)nc3ccccc23)cn1 | inactive
COc1cccc(Cn2c(=O)c(-c3cn(C)c4ccccc34)nc3cnc(N4CCOCC4)nc32)c1 | inactive
CCNc1ncc2nc(-c3cccs3)c(=O)n(Cc3ccc(F)cc3)c2n1 | inactive
COCCn1c(=O)cnc2cnc(N3CCOCC3)nc21 | inactive
COc1ccccc1CNc1ccnc(-c2ccccc2Cl)n1 | inactive
COc1ncc2nc(-c3cn(C)c4ccccc34)c(=O)n(CCc3ccccc3)c2n1 | inactive
Cc1noc(C)c1-c1cncnc1Nc1ccccc1 | inactive
COc1cccc(Cn2c(=O)c(C)nc3cnc(Nc4cccc(OC)c4)nc32)c1 | inactive
COc1ccc(-n2c(=O)c(-c3cccs3)nc3cnc(Nc4ccccc4)nc32)cc1 | inactive
Cn1cc(-c2nc3cnc(OCc4ccccc4)nc3n(CCC#N)c2=O)c2ccccc21 | inactive
COc1cccc(Cn2c(=O)c(-c3cccc(C#N)c3)nc3cnc(N4CCOCC4)nc32)c1 | inactive
Cc1ccccc1-c1nc(NC2CC2)c2ccccc2n1 | active
Clc1ccccc1-c1cc(NCCN2CCOCC2)ncn1 | inactive
COc1ccc(-n2c(=O)c(-c3ccc(Cl)cc3)nc3cnc(N(C)C)nc32)cc1 | inactive
COc1ccc2[nH]cc(CCNc3cc(-c4c(C)noc4C)ncn3)c2c1 | inactive
O=c1c(-c2cccs2)nc2cncnc2n1-c1ccccc1 | inactive

====

protocol_text: Confirmation and Secondary Assay for Modulators of Hemoglobin Beta Chain Splicing at IVS2 654 locus (AID 910);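 note: HeLa cells stably carrying EGFP split by mutant beta-globin IVS2-654 intron; per-well total GFP intensity by laser scanning cytometry after 2-day treatment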
measurement_context: HeLa EGFP-654 splicing reporter, GFP fluorescence, 48 h; series mostly up to 38.3 µM
Experimental: NIH Chemical Genomics Center [NCGC] NIH Molecular Libraries Screening Centers Network [MLSCN] […] NCGC Assay Protocol Summary: Confirmatory Screening. […] Plates were read in the Acumen Explorer (TTP Labtech) using 488 nm laser excitation and 500-520 nm emission PMT filter in a 1 x […] capture mode. Fluorescnet objects ranging in size from 5 to 250 uM were measured and the total peak GFP intensity for each well was used for data analysis. […]
Active and inactive are the calls of the source. Calls follow the shape of the dose curve; as a rule, active = well fitted activation curve with a large enough effect; inconclusive = small, poorly fitted or top-dose-only effect; inactive = flat fitted curve, though single readings scatter.
Labels: 1 = active, -1 = inactive

compound | category
Cc1ccccc1-c1cncnc1N1CCNCC1 | -1
CN(C)C(=O)c1ccc(-c2nc(N(C)Cc3ccco3)c3ccccc3n2)cc1 | -1
CC1=CC2C(CC1=O)C(C)=CCC2C(C)C (stereo not given) | -1
Clc1ccccc1-c1cc(NCc2cccnc2)ncn1 | -1
COC(=O)[C@@H]1C2CC3c4[nH]c5cc(OC)ccc5c4CCN3CC2C[C@H](OC(=O)c2cc(OC)c(OC)c(OC)c2)C1OC (stereo not given in full) | 1
CN(C)Cc1ccccc1-c1ccc2ncnc(NCc3cccs3)c2c1 | -1
CC(=O)OC1CC[C@]2(C)C(CC(OC(C)=O)[C@@]3(C)C4=CC(=O)OC(c5ccoc5)[C@]4(C)CCC23)C1(C)C (stereo not given in full) | -1
COc1ccc2[nH]cc(CCNc3cc(-c4ccoc4)ncn3)c2c1 | -1
c1cncc(-c2ccc3ncnc(N4CCNCC4)c3c2)c1 | -1
COc1ccc2[nH]cc(CCNc3nc(-c4ccoc4)nc4ccccc34)c2c1 | -1
CN(C)Cc1ccccc1-c1ccc2ncnc(N(C)Cc3ccco3)c2c1 | -1
COS(C)(=O)=O | -1
COc1ccc2[nH]cc(CCNc3nc(-c4cccc(NS(C)(=O)=O)c4)nc4ccccc34)c2c1 | -1
CCOC(=O)c1c(C)cc(OC)cc1O | -1
CN(C)Cc1ccccc1-c1nccc(NCc2cccs2)n1 | -1
CN1CCN(c2ccnc(-c3cccc(NS(C)(=O)=O)c3)n2)CC1 | -1
CN(C)Cc1ccccc1-c1cncnc1NCc1cccnc1 | -1
O=C(Cc1cccs1)NC1C(=O)N2C(C(=O)[O-])=C(C[n+]3ccccc3)CSC12 (stereo not given) | -1
COc1cccc(-c2cncnc2NCc2ccc(OC)cc2OC)c1 | -1
COc1ccc(CNc2nc(-c3ccoc3)nc3ccccc23)c(OC)c1 | -1
Cc1cccc(CNc2cc(-c3ccc(C(=O)N(C)C)cc3)ncn2)c1 | -1
CC(=O)NCCNc1ncncc1-c1ccccc1C(F)(F)F | -1
CN(C)C(=O)c1ccc(-c2ccc3ncnc(NC4CCNCC4)c3c2)cc1 | -1
COc1cc(C/C=C/c2ccccc2)c(OC)cc1O | -1
COc1ccccc1CNc1ncnc2ccc(-c3c(C)noc3C)cc12 | -1
C[C@@](N)(Cc1ccc(O)c(O)c1)C(=O)O | -1
COc1ccc(-c2cc(=O)c3c(OC)c(OC)c(OC)c(OC)c3o2)cc1OC | -1
Oc1ccc2c(c1)OCC1(O)Cc3cc(O)c(O)cc3C21 (stereo not given) | -1
CS(=O)(=O)Nc1cccc(-c2nc(N3CCNCC3)c3ccccc3n2)c1 | -1
NCC1OC(n2cnc3c(=O)[nH]c(N)nc32)C(O)C1O (stereo not given) | -1
